# experiment.notes: MTT cell viability assay
# Format: cell-based, human
# particulars: human, HaCaT keratinocyte cells (healthy control line), 24 h, compounds 0.01–40 μM, healthy control line, read-out: In Vitro Cytotoxicity, EC50 ± SD, HaCaT
Strictly below 20 µM in EC50 at 24 h: T. Otherwise: F.

> print(dat)
                                    compound  assigned.label
 1    CC(C)CN1c2ccccc2NC(=O)[C@@H]1Cc1ccccc1               F
 2  CC(C)C[C@@H]1NC(=O)c2ccccc2N(Cc2ccc(C(F)(F)F)cc2)C1=O               F
 3  CC(C)C[C@@H](C(=O)OCc1ccccc1)n1c(=O)[nH]c2ccccc2c1=O               T
 4  CC(C)C[C@H]1C(=O)N(Cc2ccc(C(F)(F)F)cc2)c2ccccc2C(=O)N1Cc1ccc(C(F)(F)F)cc1               F
 5       CC(C)CN1Cc2ccccc2NC[C@@H]1Cc1ccccc1               F
 6  CC(C)(C)CNC(=O)[C@H](Cc1ccccc1)N1Cc2ccccc2OC1=O               F
 7  CC(C)C[C@@H]1NC(=O)[C@H](Cc2ccccc2)N(Cc2ccccc2)C1=O               F
 8     CC(C)C[C@H]1C(=O)Nc2ccccc2N1Cc1ccccc1               F
 9  CC(C)COC(=O)[C@H](Cc1ccccc1)N1Cc2ccccc2NC1=O               F
10  O=c1[nH]cc(F)c(=O)[nH]1 [Compound 5-FU, 5-fluorouracil, reference compound]               T
11        CC(C)C[C@@H]1NC(=O)OCc2ccccc2NC1=O               F
12  CC(C)C[C@H]1CN(Cc2ccc(C(F)(F)F)cc2)c2ccccc2C(=O)N1Cc1ccc(C(F)(F)F)cc1               F
13  CC(C)COC(=O)[C@H](Cc1ccccc1)n1c(=O)[nH]c2ccccc2c1=O               F
14  O=C1[C@H](Cc2ccccc2)N(Cc2ccc(C(F)(F)F)cc2)C(=O)c2ccccc2N1Cc1ccc(C(F)(F)F)cc1               F
15  CC(C)C[C@H]1CN(Cc2ccc(C(F)(F)F)cc2)c2ccccc2CN1Cc1ccc(C(F)(F)F)cc1               F
16  O=C1N[C@@H](Cc2ccccc2)C(=O)N(Cc2ccc(C(F)(F)F)cc2)c2ccccc21               F
17  CC(C)C[C@H]1CNc2ccccc2C(=O)N1Cc1ccc(C(F)(F)F)cc1               T
18  CC(C)C[C@@H](C(=O)OCc1ccccc1)N1Cc2ccccc2NC1=O               F
19  CC(C)C[C@@H](C(=O)NCc1ccccc1)N1Cc2ccccc2OC1=O               F

----------
# target: UniProtKB Q9Y2T6
# Sequence (Q9Y2T6 whole entry): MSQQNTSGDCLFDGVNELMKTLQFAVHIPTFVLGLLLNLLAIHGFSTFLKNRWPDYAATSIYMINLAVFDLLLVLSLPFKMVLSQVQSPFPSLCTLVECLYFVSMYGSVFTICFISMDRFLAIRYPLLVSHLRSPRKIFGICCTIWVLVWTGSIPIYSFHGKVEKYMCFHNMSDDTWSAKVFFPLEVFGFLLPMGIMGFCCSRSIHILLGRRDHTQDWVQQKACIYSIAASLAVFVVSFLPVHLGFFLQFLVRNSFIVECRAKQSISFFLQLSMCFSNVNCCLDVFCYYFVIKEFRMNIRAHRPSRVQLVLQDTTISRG
pIC50: −log10 of the molar value.
quantity.measured: pIC50

> print(dat)
                                smiles.repr  recorded.value
1  CC(C)C[C@@H](C(=O)OCc1ccccc1)N1Cc2ccccc2NC1=O          ≤ 4.52

----------
pIC50: −log10 of the molar value.
Measured pIC50 on Thromboxane Synthase (Homo sapiens) follows.
Sequence (P24557 whole entry): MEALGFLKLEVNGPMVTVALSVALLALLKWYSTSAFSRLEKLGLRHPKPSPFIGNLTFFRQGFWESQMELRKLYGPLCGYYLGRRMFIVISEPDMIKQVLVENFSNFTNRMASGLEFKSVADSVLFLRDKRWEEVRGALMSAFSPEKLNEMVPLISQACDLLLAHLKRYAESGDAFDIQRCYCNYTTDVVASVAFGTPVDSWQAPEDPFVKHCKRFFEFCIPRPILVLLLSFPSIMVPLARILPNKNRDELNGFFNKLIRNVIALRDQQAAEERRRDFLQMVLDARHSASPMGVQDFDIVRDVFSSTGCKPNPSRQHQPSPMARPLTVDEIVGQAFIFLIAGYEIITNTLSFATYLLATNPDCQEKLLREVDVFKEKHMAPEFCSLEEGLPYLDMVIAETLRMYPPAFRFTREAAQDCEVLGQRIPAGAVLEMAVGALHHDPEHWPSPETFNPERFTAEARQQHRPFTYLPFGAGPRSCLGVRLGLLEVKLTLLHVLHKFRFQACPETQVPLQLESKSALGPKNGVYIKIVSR
quantity.measured: pIC50

> print(dat)
                                   molecule                               target  quantity.measured  recorded.value
1  CC(C)C[C@@H](C(=O)OCc1ccccc1)N1Cc2ccccc2NC1=O [Compound 63]  Thromboxane Synthase (Homo sapiens)              pIC50          ≤ 4.52
2  CC(C)C[C@H]1C(=O)N(Cc2ccc(C(F)(F)F)cc2)c2ccccc2C(=O)N1Cc1ccc(C(F)(F)F)cc1 [Compound 31]  Thromboxane Synthase (Homo sapiens)              pIC50          ≤ 4.52

----------
# Tested on: A549
# experiment.notes: MTT cell viability assay
# Format: cell-based
# particulars: Homo sapiens, 24 h, compounds 0.01–40 μM, read-out: In Vitro Cytotoxicity, EC50 ± SD, A549
quantity.measured: EC50 (µM)

> print(dat)
                                    compound  quantity.measured  readout.unit  bound.sign  recorded.value
 1  CC(C)C[C@H]1CN(Cc2ccc(C(F)(F)F)cc2)c2ccccc2CN1Cc1ccc(C(F)(F)F)cc1 [Compound 38]               EC50            µM           =            37.9
 2  CC(C)C[C@@H](C(=O)NCc1ccccc1)N1Cc2ccccc2OC1=O [Compound 7]               EC50            µM           >              40
 3  CC(C)C[C@@H]1NC(=O)c2ccccc2N(Cc2ccc(C(F)(F)F)cc2)C1=O [Compound 29]               EC50            µM           >              40
 4  CC(C)COC(=O)[C@H](Cc1ccccc1)N1Cc2ccccc2NC1=O [Compound 64]               EC50            µM           =            32.3
 5  CC(C)C[C@@H](C(=O)OCc1ccccc1)n1c(=O)[nH]c2ccccc2c1=O [Compound 23]               EC50            µM           =            4.12
 6  CC(C)C[C@H]1C(=O)N(Cc2ccc(C(F)(F)F)cc2)c2ccccc2C(=O)N1Cc1ccc(C(F)(F)F)cc1 [Compound 31]               EC50            µM           >              40
 7  CC(C)CN1c2ccccc2NC(=O)[C@@H]1Cc1ccccc1 [Compound 48]               EC50            µM           =            35.5
 8  CC(C)C[C@@H]1NC(=O)OCc2ccccc2NC1=O [Compound 52]               EC50            µM           >              40
 9  O=C1[C@H](Cc2ccccc2)N(Cc2ccc(C(F)(F)F)cc2)C(=O)c2ccccc2N1Cc1ccc(C(F)(F)F)cc1 [Compound 30]               EC50            µM           >              40
10  CC(C)C[C@H]1CN(Cc2ccc(C(F)(F)F)cc2)c2ccccc2C(=O)N1Cc1ccc(C(F)(F)F)cc1 [Compound 34]               EC50            µM           =            17.6
11  O=C1N[C@@H](Cc2ccccc2)C(=O)N(Cc2ccc(C(F)(F)F)cc2)c2ccccc21 [Compound 28]               EC50            µM           =             8.8
12  CC(C)C[C@H]1CNc2ccccc2C(=O)N1Cc1ccc(C(F)(F)F)cc1 [Compound 33]               EC50            µM           =            10.4
13  CC(C)(C)CNC(=O)[C@H](Cc1ccccc1)N1Cc2ccccc2OC1=O [Compound 8]               EC50            µM           =              15
14  CC(C)COC(=O)[C@H](Cc1ccccc1)n1c(=O)[nH]c2ccccc2c1=O [Compound 22]               EC50            µM           =            36.3

----------
Reported IC50 values are given for each entry in this list.
# target: V2 Human Vasopressin/Oxytocin GPCR (Homo sapiens, UniProt P30518)
# Construct: Eurofins (contract assay)
# Sequence (P30518 whole entry): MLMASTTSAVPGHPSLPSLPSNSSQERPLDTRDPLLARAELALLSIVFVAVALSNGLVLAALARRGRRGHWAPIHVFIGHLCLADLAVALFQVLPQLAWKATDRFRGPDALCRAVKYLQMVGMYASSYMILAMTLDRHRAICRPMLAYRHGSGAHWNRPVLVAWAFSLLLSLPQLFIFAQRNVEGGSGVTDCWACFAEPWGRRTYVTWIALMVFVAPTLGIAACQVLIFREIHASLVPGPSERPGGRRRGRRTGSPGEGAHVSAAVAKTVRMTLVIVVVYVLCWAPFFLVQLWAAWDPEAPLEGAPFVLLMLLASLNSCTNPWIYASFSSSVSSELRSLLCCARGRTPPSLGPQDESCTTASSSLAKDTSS
# experiment.notes: Binding Agonist Radioligand LeadHunter Assay
# particulars: Eurofins, read-out: EC50 or IC50, V2 Human Vasopressin/Oxytocin GPCR
quantity.measured: IC50

> print(dat)
                                   molecule  quantity.measured  recorded.value
1  CC(C)C[C@H]1C(=O)N(Cc2ccc(C(F)(F)F)cc2)c2ccccc2C(=O)N1Cc1ccc(C(F)(F)F)cc1 [Compound 31]               IC50         ≥ 30 µM
2  CC(C)C[C@@H](C(=O)OCc1ccccc1)N1Cc2ccccc2NC1=O [Compound 63]               IC50         ≥ 30 µM

----------
# target: BRD4(BD1) (Homo sapiens)
# experiment.notes: BRD4 (BD1) Inhibitor Screening Assay Kit (AlphaScreen)
# particulars: read-out: EC50 or IC50, bromodomain-containing protein 4
quantity.measured: IC50

> print(dat)
                                   compound  quantity.measured  recorded.value
1  CC(C)C[C@H]1C(=O)N(Cc2ccc(C(F)(F)F)cc2)c2ccccc2C(=O)N1Cc1ccc(C(F)(F)F)cc1 [Compound 31]               IC50         1190 nM
2  CC(C)C[C@@H](C(=O)OCc1ccccc1)N1Cc2ccccc2NC1=O [Compound 63]               IC50          110 nM

Measured values drawn from paper PMC12362587 for this set.
